System: CAKI-1
experiment: Growth inhibition of human CAKI-1 cells assessed as cell growth at 0.1 uM incubated for 48 hrs by sulforhodamine B assay relative to control
Format: functional
conditionSummary: read-out: Activity
# reported growth at 0.1 µM; entries follow
Write down the numeric answer in % and omit the unit.

Some molecules with known growth at 0.1 µM results, for comparison:
{"inputSmiles": "Cc1cc(C)c(NC(=O)c2sc3nc4c(cc3c2N)CN(Cc2ccccc2)CC4)c(C)c1", "growth at 0.1 µM (%)": 90}
{"inputSmiles": "CN1CCc2nc3sc(C(N)=O)c(N)c3c(-c3cccs3)c2C1", "growth at 0.1 µM (%)": 82}
{"inputSmiles": "Nc1c(C(=O)Nc2ccccc2)sc2nc3c(cc12)CN(Cc1ccccc1)CC3", "growth at 0.1 µM (%)": 86}
{"inputSmiles": "CCc1cccc(C)c1NC(=O)c1sc2nc3c(cc2c1N)C(=O)CCC3", "growth at 0.1 µM (%)": 91}
{"inputSmiles": "Cc1cccc(NC(=O)c2sc3nc4c(cc3c2N)C(=O)CCC4)c1", "growth at 0.1 µM (%)": 73}
{"inputSmiles": "COc1cccc(NC(=O)c2sc3nc4c(cc3c2N)CN(Cc2ccccc2)CC4)c1", "growth at 0.1 µM (%)": 91}

Look up growth at 0.1 µM: Cc1ccc(NC(=O)c2sc3nc4c(cc3c2N)C(=O)CCC4)cc1C
91

Look up growth at 0.1 µM: CCc1ccccc1NC(=O)c1sc2nc3c(cc2c1N)C(=O)CCC3
90

* * *

Tested on: NCI-H460
experiment: Growth inhibition of human NCI-H460 cells incubated for 48 hrs by sulforhodamine B assay
Type: functional
measurementLabel: GI50 (nM)
Write down the numeric answer in nM and omit the unit.

Some compounds with known GI50 results, for comparison:
{"inputSmiles": "Cc1cccc(NC(=O)c2sc3nc4c(cc3c2N)C(=O)CCC4)c1", "recordedResult": 286}
{"inputSmiles": "Cc1cc(C)c(NC(=O)c2sc3nc4c(cc3c2N)CN(Cc2ccccc2)CC4)c(C)c1", "recordedResult": 3290}

Look up GI50: CCc1cccc(C)c1NC(=O)c1sc2nc3c(cc2c1N)C(=O)CCC3
355

Look up GI50: CCc1ccccc1NC(=O)c1sc2nc3c(cc2c1N)C(=O)CCC3
345

Look up GI50: Cc1ccc(NC(=O)c2sc3nc4c(cc3c2N)C(=O)CCC4)cc1C
374

Look up GI50: Nc1c(C(=O)Nc2ccccc2)sc2nc3c(cc12)CN(Cc1ccccc1)CC3
7510

Look up GI50: CN1CCc2nc3sc(C(N)=O)c(N)c3c(-c3cccs3)c2C1
3710

Look up GI50: COc1cccc(NC(=O)c2sc3nc4c(cc3c2N)CN(Cc2ccccc2)CC4)c1
4180

* * *

Tested on: OVCAR-4
experiment: Growth inhibition of human OVCAR-4 cells assessed as cell growth at 0.1 uM incubated for 48 hrs by sulforhodamine B assay relative to control
Type: functional
conditionSummary: read-out: Activity
Label 1.0 when growth at 0.1 µM < 90%; otherwise 0.0.

{"inputSmiles": "CN1CCc2nc3sc(C(N)=O)c(N)c3c(-c3cccs3)c2C1", "classAssignment": 0.0}
{"inputSmiles": "Cc1cccc(NC(=O)c2sc3nc4c(cc3c2N)C(=O)CCC4)c1", "classAssignment": 1.0}
{"inputSmiles": "COc1cccc(NC(=O)c2sc3nc4c(cc3c2N)CN(Cc2ccccc2)CC4)c1", "classAssignment": 0.0}
{"inputSmiles": "Cc1ccc(NC(=O)c2sc3nc4c(cc3c2N)C(=O)CCC4)cc1C", "classAssignment": 1.0}

Query compound follows.
Say whether its growth at 0.1 µM is strictly beneath 90%. Entry: Cc1cc(C)c(NC(=O)c2sc3nc4c(cc3c2N)CN(Cc2ccccc2)CC4)c(C)c1
0.0
